protocolNotes: Selectivity index, ratio of CC50 for cytotoxicity against human GES-1 cells to IC50 for antiproliferative activity against human SGC7901 cells
measurementSetup: GES-1 cells (CC50) versus SGC7901 cells (IC50)
readoutKind: selectivity ratio

Give the measured selectivity ratio of Nc1nc2[nH]cc(CCc3ccc(C(=O)N[C@@H](CCC(=O)O)C(=O)O)cc3)c2c(=O)[nH]1 [PEMETREXED DISODIUM] . 3.25

* * *

Assignment: determine reported CC50 at 24 h for the given compounds.
protocolNotes: Cytotoxicity against human L02 cells assessed as reduction in cell viability after 24 hrs by MTT assay
Format: cell-based
measurementSetup: L02 cells
One number for each entry, in µM.

- compound: "O=c1[nH]cc(S(=O)(=O)Nc2ccc(-c3cn(-c4cccc(Cl)c4)nn3)cc2)c(=O)[nH]1"
  quantityUnit: "µM"
  CC50 at 24 h: 19
- compound: "Cc1cccc(-n2cc(-c3ccccc3NS(=O)(=O)c3c[nH]c(=O)[nH]c3=O)nn2)c1"
  quantityUnit: "µM"
  CC50 at 24 h: 21.9
- compound: "Nc1nc2[nH]cc(CCc3ccc(C(=O)N[C@@H](CCC(=O)O)C(=O)O)cc3)c2c(=O)[nH]1 [PEMETREXED DISODIUM]"
  quantityUnit: "µM"
  CC50 at 24 h: 30.7
- compound: "O=c1[nH]cc(S(=O)(=O)Nc2ccc(-c3cn(-c4ccc(Cl)cc4)nn3)cc2)c(=O)[nH]1"
  quantityUnit: "µM"
  CC50 at 24 h: 42.9
- compound: "O=c1[nH]cc(S(=O)(=O)Nc2cccc(-c3cn(-c4ccccc4Cl)nn3)c2)c(=O)[nH]1"
  quantityUnit: "µM"
  CC50 at 24 h: 11.5

Below are 2 compounds. Give each one its CC50 at 24 h.
1. Cc1ccccc1-n1cc(-c2ccccc2NS(=O)(=O)c2c[nH]c(=O)[nH]c2=O)nn1
2. Cc1cccc(-n2cc(-c3cccc(NS(=O)(=O)c4c[nH]c(=O)[nH]c4=O)c3)nn2)c1

[56.6, 28.3]

* * *

Could you please report measured CC50 at 24 h for the items listed next?
protocolNotes: Cytotoxicity against human GES-1 cells assessed as reduction in cell viability after 24 hrs by MTT assay
Format: cell-based, GES1
measurementSetup: GES-1 cells

Known CC50 at 24 h results, listed for orientation:
- molecule: "O=c1[nH]cc(S(=O)(=O)Nc2cccc(-c3cn(-c4cccc(Cl)c4)nn3)c2)c(=O)[nH]1"
  CC50 at 24 h: "26.2 µM"
- molecule: "O=c1[nH]cc(S(=O)(=O)Nc2ccccc2-c2cn(-c3ccccc3)nn2)c(=O)[nH]1"
  CC50 at 24 h: "> 100 µM"
- molecule: "O=c1[nH]cc(S(=O)(=O)Nc2ccc(-c3cn(-c4cccc(Cl)c4)nn3)cc2)c(=O)[nH]1"
  CC50 at 24 h: "7.57 µM"
- molecule: "Nc1nc2[nH]cc(CCc3ccc(C(=O)N[C@@H](CCC(=O)O)C(=O)O)cc3)c2c(=O)[nH]1 [PEMETREXED DISODIUM]"
  CC50 at 24 h: "22.6 µM"

Next, consider the following molecule.
I am curious: what CC50 at 24 h value has been reported for O=c1[nH]cc(S(=O)(=O)Nc2cccc(-c3cn(-c4ccccc4)nn3)c2)c(=O)[nH]1 ? 22.5 µM

The measured values listed here are drawn from ChEMBL document CHEMBL4346687.
